Test: NCI Yeast Anticancer Drug Screen. Data for the rad50EPP+ strain (AID 151);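 note: 0% = growth of vehicle-treated control cultures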
Conditions: S. cerevisiae rad50 mutant strain, at 3.7 µM, active compounds read high
Protocol: Growth inhibition of yeast strains with defined genetic alterations is measured as a screen for potential anti-cancer activity. Selected strains with alterations in DNA damage repair or cell cycle control were exposed to compounds and growth inhibition was measured relative to vehicle treated controls. The strain used in this assay is rad50EPP+
This is part of a sample that, as a whole, favours compounds with a hit. Of some 79,000 tested, about 15% had one in any assay.
testReadout: growth inhibition (%)
Answers are plain numbers, in %.

C=CC(C)(O)CCC1C(=C)C(O)CC2C(C)(C)CCCC12C (stereo not given) = -6
CCN(CC)CC(O)c1ccc2ccc3ccccc3c2c1 (stereo not given) = 1
Cc1ccc(CSC(N)=Nc2ccccc2)cc1C = 12
CC(=O)OCc1ccc(O)c(C=O)c1 = -2
Cn1c(=O)c2ccccc2c2ccccc21 = 19

Hi there! I need growth inhibition for each item below, if you can.
1. CC(=O)Nc1ccc(/C=C(\C#N)c2ccc(C)cc2)cc1
2. Fc1ccc(NC(=S)SCc2ccc3c(c2)OCO3)cc1F
3. O=[N+]([O-])c1ccc([N+]2=NC(c3ccccc3)=NN(c3ccccc3)C2)cc1
4. OC1CSCCCSCCSCCCSC1

## Result
1: -20; 2: 27; 3: 12; 4: -52

## Task What value of growth inhibition has been recorded for this entry: CC(C)(CN1CCCCC1)C(=O)CC(SCCS(=O)(=O)O)c1ccc(Br)cc1 (stereo not given)
## Result -4

----------
Experiment: NCI Yeast Anticancer Drug Screen. Data for the bub3 strain (AID 167)
Conditions: S. cerevisiae bub3 mutant strain, at 50.0 µM
Compounds without any hit were thinned out: in the full panel of roughly 79,000, 15% have a hit. Activity calls are given as the source filed them. No stated cut-off is given here; in the data, active means growth inhibition above about 70%; inactive means the rest.
# output must be one of Y for active, N for inactive

Example cases with answers are listed next.
CCC/C(Cl)=N\OC(=O)Nc1cccc(C(F)(F)F)c1 = Y
Cc1cc(N=Nc2ccc(S(=O)(=O)[O-])cc2)cc(C(=O)[O-])c1[O-].NC1CCCCC1N.[Na+].[Pt+4] = Y
COc1ccc(OC)c2cc3ccccc3cc12 = Y
CCCCCCCCCCCCCCCCCCNC = Y
O=C1Nc2ccc(Cl)c(I)c2C1=O = Y

## Task Just curious, what result did `Cc1nn(-c2cc(Cl)ccc2[N+](=O)[O-])c(C)c1Cl` get here?
## Result N

## Task Just curious, what result did `CN(N=O)N1C(=O)SCC(c2ccccc2)(c2ccccc2)C1=O` get here?
## Result N

## Task Just curious, what result did C[CH2][Sn]([CH2]C)([O]C(=O)C(OC(C)=O)c1ccccc1)[O]C(=O)C(OC(C)=O)c1ccccc1 (centres undefined) get here?
## Result N

## Task Just curious, what result did `COCCOC(=O)CCn1cc(F)c(=O)[nH]c1=O` get here?
## Result N

## Task Just curious, what result did `O=C1CSc2cc([N+](=O)[O-])ccc2N1` get here?
## Result Y

## Task Just curious, what result did CC1C(NNc2ccccc2)Oc2cc3c(cc2C1c1ccccc1O)OCO3 (centres undefined) get here?
## Result Y

## Task Just curious, what result did `CC(=O)Oc1ccc2c(c1)Cc1cc(N=C3C=CC(=O)O3)ccc1-2` get here?
## Result Y

## Task Just curious, what result did `Cc1cc(S(=O)(=O)/N=C(/NN)NNc2cccc(C(F)(F)F)n2)c(S)cc1Cl` get here?
## Result N

## Task Just curious, what result did `CC(=O)ON1C(=O)c2cccc3cccc(c23)C1=O` get here?
## Result Y

## Task Just curious, what result did `N#CN=Nc1cc(Cl)c(N=NC#N)cc1Cl` get here?
## Result N

## Task Just curious, what result did `O=C(Nc1ccccc1)OCCc1ccc(Cl)c(Cl)c1` get here?
## Result Y

----------
Experiment: NCI Yeast Anticancer Drug Screen. Data for the rad50 strain (AID 155);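 note: 0% = growth of vehicle-only cultures of the same strain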
Details: S. cerevisiae rad50 strain growth inhibition; at 33.0 µM
The panel holds about 79,000 compounds, 15% with a hit somewhere; the sample as a whole holds those more often. Active and inactive are the calls of the source. Rule as the data show it: active = growth inhibition above about 70%; inactive = the rest.
# output must be one of y (active), n (inactive)

Example cases with answers are listed next.
CC(C)c1cc(C(C)C)c(O)c(C([O-])[O-])c1.CC(C)c1cc(C(C)C)c(O)c(C([O-])[O-])c1.CC(C)c1cc(C(C)C)c(O)c(C([OH2+])[OH2+])c1.CC(C)c1cc(C(C)C)c(O)c(C([OH2+])[OH2+])c1.[Cu+2].[Cu+2].[OH3+].[OH3+] = n
Oc1ccc(NCn2c(=S)sc3ccccc32)cc1 = n
NNc1c(F)c(F)cc(F)c1F = n
Cn1c(N)nc(-c2ccc(Cl)cc2)c1SSc1c(-c2ccc(Cl)cc2)nc(N)n1C = y
O=C1C=CC(=C(c2ccccc2)c2ccccc2)c2ccccc21 = n
O=[N+]([O-])c1ccc([N+]2=NC(c3ccccc3)=NN(c3ccccc3)C2)cc1 = n
CN(C)CCn1c2c3ccccc3ccc2c2oc(=O)c3ccccc3c21 = y
O=C1Nc2ccccc2/C1=C/COc1ccccc1 = y

Please look at the following compound next.
## Task Just curious, what result did `CC1=NN(c2cccc(Cl)c2)C(=O)C1` get here?
## Result n

----------
Assay: NCI Yeast Anticancer Drug Screen. Data for the rad18 strain (AID 177)
Conditions: S. cerevisiae rad18 mutant growth inhibition; at 1.2 µM; active compounds read high
Compounds without any hit were thinned out: in the full panel of roughly 79,000, 15% have a hit.
testReadout: growth inhibition (%)
Answers are plain numbers, in %.

Worked cases, answers included:
O=C1C2CC[C@@H]3C(=O)C(Cl)(Cl)[C@@H]3CCC2C1(Cl)Cl (stereo partly drawn) = 59
Cc1cc(N=Nc2ccc(S(=O)(=O)[O-])cc2)cc(C(=O)[O-])c1[O-].NC1CCCCC1N.[Na+].[Pt+4] = -26
O=C(/C=C\c1ccc(Cl)cc1Cl)c1cccs1 = 3
Cc1[nH]c2ccccc2c1C(c1ccc(N)cc1)c1c(C)[nH]c2ccccc12 = 4
COc1ccc(OC)c2cc3ccccc3cc12 = 5
Cc1nn(-c2cc(Cl)ccc2[N+](=O)[O-])c(C)c1Cl = 2

Hi there! I need growth inhibition for each item below, if you can.
1. O=C1C2C(C(=O)N1c1ccc(OCc3ccccc3)cc1)C1c3ccccc3C2C2CCCCN21 (stereo not drawn)
2. COc1ccc2nc3cccc([N+](=O)[O-])c3c(NCCN(CCO)CCO)c2c1
3. C(CCSC1=NCCN1)CSC1=NCCN1 (tested in a mixture with another compound)
4. CSc1nc(=S)[nH]c2c1c(C)nn2-c1ccccc1
5. Cc1c(Cl)ccc2c1S(=O)(=O)c1cccc(Cl)c1-2
6. COc1cc2c3c(cccc3c1)C(=O)N(CCN(C)C)C2=O

## Result
1. -3
2. 94
3. 26
4. 10
5. -18
6. -34

----------
Can you tell me growth inhibition for the items I'm about to list?
Experiment: NCI Yeast Anticancer Drug Screen. Data for the sgs1 mgt1 strain (AID 161);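 note: 0% = growth of cultures given vehicle only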
Conditions: S. cerevisiae sgs1 mgt1 strain, at 50.0 µM (retest, dose inferred, filed as 5.0), active compounds read high
Compounds without any hit were thinned out: in the full panel of roughly 79,000, 15% have a hit. Calls of active or inactive are those of the source. Rule as the data show it: active = growth inhibition above about 70%; inactive = the rest.

Worked cases, answers included:
CC1CCN(CCC(=O)c2ccc(Cl)cc2)CC1 = 50% (inactive)
O=C1NC(=O)C2C3C=CC(C3)C12 (stereo unspecified) = 93% (active)
O=C1C=CC(=C(c2ccccc2)c2ccccc2)c2ccccc21 = 93% (active)
CCCCCCCCCCC1CCC(=O)O1 (stereo unspecified) = 13% (inactive)

Hi there! I need growth inhibition for each item below, if you can.
1. CCOC(=O)C(NC(=O)c1ccccc1)(N1CCN(c2cc3c(cc2F)c(=O)c(C(=O)O)cn3C2CC2)CC1)C(F)(F)F (stereo unspecified)
2. O=C(/C=C/c1cccc(Br)c1)c1cccs1

## Result
-15% (inactive)
96% (active)

----------
Test: NCI Yeast Anticancer Drug Screen. Data for the bub3 strain (AID 167)
Details: S. cerevisiae bub3 mutant strain, at 5.0 µM (retest, dose inferred, filed as 0.5), active compounds read high
The panel holds about 79,000 compounds, 15% with a hit somewhere; the sample as a whole holds those more often. Active and inactive are the calls of the source. Rule as the data show it: active = growth inhibition above about 70%; inactive = the rest.
testReadout: growth inhibition

CN(C)c1nc2sc3c(c2c(=O)o1)CCCC3 = 39% (inactive)
CCN(CC)CCNc1ccc([N+](=O)[O-])c2nc3ccc(OC)cc3c(N)c12 = -24% (inactive)
O=CNc1ccc2c(c1)C(=O)c1ccccc1-2 = -6% (inactive)
COc1cc2c(cc1[N+](=O)[O-])C(=O)C(Br)(Br)CCC2 = 42% (inactive)
S=C(Nc1ccc(Cl)cc1)SC1CCCCC1 = 17% (inactive)

Hi there! I need growth inhibition for each item below, if you can.
1. NC1=NS(=O)(=O)N=C(N)C1=Cc1ccc([N+](=O)[O-])o1
2. COc1ccc(Br)c(C(=O)Sc2nnnn2-c2cccc(Cl)c2)c1
3. O=C(c1ccc(Cl)cc1Cl)C(Cl)Cl
4. O=[N+]([O-])c1cccc2nccc(NCCCO)c12
5. CSC(=S)Nc1cc(C)ccn1
6. COc1cc(C2SCC(=O)N2c2ccc(-c3ccc(-n4c(-c5ccccc5)nc5ccccc5c4=O)cc3)cc2)cc(OC)c1OC (centres undefined)

## Result
1. 5% (inactive)
2. 23% (inactive)
3. -4% (inactive)
4. 4% (inactive)
5. 8% (inactive)
6. 6% (inactive)
